- tested_on: OAT3 (Homo sapiens (Human), UniProt Q8TCC7)
- Sequence (Q8TCC7 whole entry): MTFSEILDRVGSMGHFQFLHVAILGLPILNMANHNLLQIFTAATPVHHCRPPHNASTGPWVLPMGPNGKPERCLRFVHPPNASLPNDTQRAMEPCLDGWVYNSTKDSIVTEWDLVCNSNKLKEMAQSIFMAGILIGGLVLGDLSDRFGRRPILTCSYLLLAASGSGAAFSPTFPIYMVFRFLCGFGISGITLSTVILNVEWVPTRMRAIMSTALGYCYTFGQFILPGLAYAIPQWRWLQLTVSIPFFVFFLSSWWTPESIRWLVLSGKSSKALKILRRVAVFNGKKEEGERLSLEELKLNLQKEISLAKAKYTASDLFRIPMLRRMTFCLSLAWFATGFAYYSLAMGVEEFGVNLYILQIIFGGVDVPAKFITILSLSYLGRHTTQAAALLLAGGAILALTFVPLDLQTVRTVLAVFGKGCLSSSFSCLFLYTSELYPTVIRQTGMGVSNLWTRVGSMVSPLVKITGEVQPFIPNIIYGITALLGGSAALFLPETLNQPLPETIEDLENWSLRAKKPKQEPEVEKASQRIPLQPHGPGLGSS
- assay_explanation: Inhibitory effect on transporter OAT3
pIC50: −log10 of the molar value.
observation_type: pIC50

Query pIC50 on OAT3 (Homo sapiens (Human), UniProt Q8TCC7) for `CC(C)(Sc1ccnc2ccc(C(F)(F)F)cc12)C(=O)NS(C)(=O)=O` < 4.00

###

- tested_on: OAT1 (Homo sapiens (Human), UniProt Q4U2R8)
- Sequence (Q4U2R8 whole entry): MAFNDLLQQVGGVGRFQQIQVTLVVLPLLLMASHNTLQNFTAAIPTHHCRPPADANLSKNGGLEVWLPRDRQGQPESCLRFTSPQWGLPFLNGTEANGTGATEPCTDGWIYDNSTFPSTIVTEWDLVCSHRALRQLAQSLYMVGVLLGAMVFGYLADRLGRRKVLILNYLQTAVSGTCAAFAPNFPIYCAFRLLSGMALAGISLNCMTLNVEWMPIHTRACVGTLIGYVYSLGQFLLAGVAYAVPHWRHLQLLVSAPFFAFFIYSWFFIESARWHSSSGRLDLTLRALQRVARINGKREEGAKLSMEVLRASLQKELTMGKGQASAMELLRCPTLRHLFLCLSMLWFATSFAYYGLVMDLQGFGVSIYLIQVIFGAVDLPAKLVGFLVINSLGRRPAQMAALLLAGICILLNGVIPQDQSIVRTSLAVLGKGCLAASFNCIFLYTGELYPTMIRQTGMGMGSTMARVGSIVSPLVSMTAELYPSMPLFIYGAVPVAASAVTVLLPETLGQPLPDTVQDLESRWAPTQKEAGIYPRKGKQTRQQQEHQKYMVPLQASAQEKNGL
- assay_explanation: Inhibitory effect on transporter OAT1
observation_type: pIC50
Interpret pIC50 as the negative base-10 log of the concentration measured in mol/L.

Return reported pIC50; argument: `CC(C)(Sc1ccnc2ccc(C(F)(F)F)cc12)C(=O)NS(C)(=O)=O` 4.90

Each recorded value in this set is attributed to patent US20240116873A1.
